A compilation of IC50 values for Vascular endothelial growth factor receptor 2 (Homo sapiens, UniProt P35968) from the published literature.
EXPERIMENTAL_ENDPOINT: IC50

> print(dat)
                                    compound       assay.value
 1  CCCS(=O)(=O)Nc1ccc(F)c(C(=O)c2c[nH]c3ncc(-c4ccc(C)nc4)cc23)c1F        ≤ 10000 nM
 2  COc1cc(OC)cc(N(CCNC(C)C)c2ccc3ncc(-c4ccc(N)nc4)nc3c2)c1           94.4 nM
 3  O=C(c1cccc(O)c1F)c1c[nH]c2ncc(-c3cccnc3)cc12        ≤ 10000 nM
 4  c1cc(CNc2ncc(Cc3c[nH]c4ncncc34)cn2)nc(N2CCCC2)c1        ≤ 10000 nM
 5  C=CC(=O)Nc1cc2c(Nc3ccc(Br)cc3F)ncnc2cc1OCCNC(=O)C(C)N (stereo not shown)            165 nM
 6  O=C(Nc1ccc(Oc2ccnc3cc(OCCCN4CCCCC4)c4c(c23)OCCO4)cc1Cl)c1cccn(-c2ccc(F)cc2)c1=O           ≤ 50 nM
 7  COc1ncnc2[nH]cc(Cc3ccc(NCc4ccc(C(F)(F)F)nc4)nc3F)c12        ≤ 10000 nM
 8  CCS(=O)(=O)Nc1ccc(F)c(C(=O)c2c[nH]c3ncc(-c4cnc(OC)nc4)cc23)c1F        ≤ 10000 nM
 9  CC(C)(O)COc1cc(-c2ccc(N3C[C@@H]4[C@H](C3)[C@H]4NS(=O)(=O)c3c(F)cccc3Cl)nc2)c2c(C#N)cnn2c1       10 to 50 nM
10  Cc1cccc(C(=O)Nc2cccc([C@H](C)Nc3cncc(-c4cccc(N5CCOCC5)c4)n3)c2)c1          < 100 nM
11  CCCS(=O)(=O)Nc1ccc(F)c(Nc2ncnc3ccc(-c4ccc(OC)nc4)cc23)c1F         > 3000 nM
12  COc1ccc(C(=O)N[C@]2(C)C[C@H]3CN(c4ccc(-c5cc(-c6ccn(C)n6)cn6ncc(C#N)c56)cn4)C[C@H]3C2)cn1       10 to 50 nM
13  C[C@@H](Nc1ncnc2[nH]c(-c3ccc(NC(=O)CCCCCCC(=O)NO)cc3)cc12)c1ccccc1    100 to 1000 nM
14     O=C(c1cccc(O)c1F)c1c[nH]c2ncc(Br)cc12        ≤ 10000 nM
15  COc1ncc(CNc2ncc(Cc3c[nH]c4ncncc34)cn2)cc1F        ≤ 10000 nM
16  Cc1oncc1S(=O)(=O)Nc1ccc(F)c(C(=O)c2c[nH]c3ncc(C#N)cc23)c1F        ≤ 10000 nM
17  Cc1cc(Nc2ncc(-c3cccc(OC4CCCC4)c3)o2)ccc1N1CCN(C)CC1          < 100 nM
18  COc1cc2nccc(Oc3ccc(NC(=O)Nc4ccc(F)cc4)cc3)c2cc1NC(C)=O            6.2 nM
19  CCC(C)S(=O)(=O)Nc1ccc(F)c(C(=O)c2c[nH]c3ncc(Cl)cc23)c1F (stereo not shown)        ≤ 10000 nM
20  O=C(c1c(F)ccc(NS(=O)(=O)CC(F)(F)F)c1F)c1c[nH]c2ncc(Cl)cc12        ≤ 10000 nM
21  COc1cccc(C(=O)c2c[nH]c3ncc(-c4cccc(N)c4)cc23)c1        ≤ 10000 nM
22  COCCOc1cc2nccc(Oc3ccc(NC(=O)c4c(C)n(C)c(C)c(C5=CCCCC5)c4=O)cc3F)c2nc1OC          ≤ 100 nM
23  Cn1cc(-c2ccnc3cc(-c4ccc5cnn(C)c5c4)oc23)cn1  3000 to 50000 nM
24  CNC(=O)c1cc(NC(=O)N(C)c2ccc(Oc3ccnc(C(=O)NC)c3)cc2)cc(C(F)(F)F)c1        ≤ 10000 nM
25  Cc1cc(Oc2cc(NC(=O)C3CC3)ncn2)ccc1NC(=O)Nc1cc(NC2CCN(C)CC2)cc(C(F)(F)F)c1           12.5 nM
26  Cn1cc(-c2cc(Oc3cccc(NC(=O)c4cccc(-c5cccnc5)c4)c3)ccn2)cn1        ≤ 10000 nM
27  Cc1cc(C(=O)c2c[nH]c3ncc(-c4cccc(N)c4)cc23)nn1C        ≤ 10000 nM
28  Cn1cc(-c2cnc3[nH]cc(C(=O)c4cccc(NS(=O)(=O)c5cccc(F)c5)c4)c3c2)cn1        ≤ 10000 nM
29  CCCS(=O)(=O)Nc1ccc(F)c(Nc2ncnc3ccc(-c4cccc(OCCOC)n4)cc23)c1F         > 3000 nM
30  CCCS(=O)(=O)Nc1ccc(F)c(C(=O)c2c[nH]c3ncc(-c4cnc(OCCCN(C)C)nc4)cc23)c1F        ≤ 10000 nM
31  CN(c1ccc(NC(=O)Nc2cccc(C(F)(F)F)c2)c(F)c1)c1cc(NC(=O)C2CC2)ncn1            7.4 nM
